The origin of these recorded values is paper PMC7930822.

- test: phase I plasma pharmacokinetics (non-compartmental, LC-MS/MS)
- Type: in vivo, human
- condition-summary: human, plasma, po, single oral dose, across 50–400 mg; read-out: mean t1/2
Structures can show the parent of a compound that is named as a salt.
assay-readout: half-life

Documented half-life of COc1cc2ncnc(Nc3ccc(F)c(Cl)c3)c2cc1OCCCN1C[C@@H]2OCCO[C@@H]2C1 [larotinib mesylate] : 39.3 to 68.6 h

###

- test: phase I plasma pharmacokinetics (non-compartmental, LC-MS/MS)
- Format: in vivo, human
- condition-summary: human, plasma, po, 100 mg, multiple oral administration, 100 mg larotinib mesylate, steady state, plasma; read-out: Vz/F,ss, mean (min–max)
Structures can show the parent of a compound that is named as a salt.
assay-readout: Vd/F (L)
Report the figure in L without appending any unit label.

Documented Vd/F of COc1cc2ncnc(Nc3ccc(F)c(Cl)c3)c2cc1OCCCN1C[C@@H]2OCCO[C@@H]2C1 [larotinib mesylate] : 1400

###

- test: phase I plasma pharmacokinetics (non-compartmental, LC-MS/MS)
- Format: in vivo, human
- condition-summary: human, plasma, po, 50 mg, multiple oral administration, 50 mg larotinib mesylate, steady state, plasma; read-out: AUC0-t,ss, mean (min–max)
Structures can show the parent of a compound that is named as a salt.
assay-readout: AUC(0-t) (ng·h/mL)
Report the figure in ng·h/mL without appending any unit label.

Documented AUC(0-t) of COc1cc2ncnc(Nc3ccc(F)c(Cl)c3)c2cc1OCCCN1C[C@@H]2OCCO[C@@H]2C1 [larotinib mesylate] : 3570

###

- test: phase I plasma pharmacokinetics (non-compartmental, LC-MS/MS)
- Format: in vivo, human
- condition-summary: human, plasma, po, 150 mg, multiple oral administration, 150 mg larotinib mesylate, steady state, plasma; read-out: Vz/F,ss, mean (min–max)
Where a name gives a salt, the structure may show the parent alone.
assay-readout: Vd/F (L)
Report the figure in L without appending any unit label.

Documented Vd/F of COc1cc2ncnc(Nc3ccc(F)c(Cl)c3)c2cc1OCCCN1C[C@@H]2OCCO[C@@H]2C1 [larotinib mesylate] : 564

###

- test: phase I plasma pharmacokinetics (non-compartmental, LC-MS/MS)
- Format: in vivo, human
- condition-summary: human, plasma, po, 350 mg, multiple oral administration, 350 mg larotinib mesylate, steady state, plasma; read-out: AUC0-t,ss, mean (min–max)
Structures can show the parent of a compound that is named as a salt.
assay-readout: AUC(0-t) (ng·h/mL)
Report the figure in ng·h/mL without appending any unit label.

Documented AUC(0-t) of COc1cc2ncnc(Nc3ccc(F)c(Cl)c3)c2cc1OCCCN1C[C@@H]2OCCO[C@@H]2C1 [larotinib mesylate] : 35900

###

- test: phase I plasma pharmacokinetics (non-compartmental, LC-MS/MS)
- Assay type: in vivo, human
- condition-summary: human, plasma, po, 150 mg, single oral administration, 150 mg larotinib mesylate, plasma; read-out: AUC0-24, mean (min–max)
Structures can show the parent of a compound that is named as a salt.
assay-readout: AUC(0-t) (ng·h/mL)
Report the figure in ng·h/mL without appending any unit label.

Documented AUC(0-t) of COc1cc2ncnc(Nc3ccc(F)c(Cl)c3)c2cc1OCCCN1C[C@@H]2OCCO[C@@H]2C1 [larotinib mesylate] : 1990

###

- test: phase I plasma pharmacokinetics (non-compartmental, LC-MS/MS)
- Type: in vivo, human
- condition-summary: human, plasma, po, 100 mg, single oral administration, 100 mg larotinib mesylate, plasma; read-out: AUC0-∞, mean (min–max)
Counter-ions that a name gives are not always drawn.
assay-readout: AUC(0-inf)

Documented AUC(0-inf) of COc1cc2ncnc(Nc3ccc(F)c(Cl)c3)c2cc1OCCCN1C[C@@H]2OCCO[C@@H]2C1 [larotinib mesylate] : 1390 ng·h/mL
